Tested on: LO2
Assay: Cell proliferative assay (MTT), LO2
Assay type: cell-based
Conditions: Homo sapiens, L02, 72 h incubation, read-out: IC50s LO2
Answer each item with its documented IC50.

Consider the following illustrative entries.
COc1ccc(/C=C/C(=O)c2ccc(OC)c3c2OC(C)(C)C=C3)cc1N(CC=C(C)C)CC=C(C)C [SKLBC-88] ... 9.7 µM
COc1ccc(/C=C/C(=O)c2ccc(OC)c3c2OC(C)(C)C=C3)cc1OS(C)(=O)=O [SKLBC-77] ... > 10 µM
COc1ccc(/C=C/C(=O)c2ccc(OC)c3c2OC(C)(C)C=C3)cc1OCCCN(C)C [SKLBC-61] ... > 10 µM
COc1ccc(/C=C/C(=O)c2ccc(OC)c3c2OC(C)(C)C=C3)cc1OC(=O)c1ccco1 [SKLBC-68] ... > 10 µM
CCN(CC)c1ccc(/C=C/C(=O)c2ccc(OC(=O)c3ccco3)c3c2OC(C)(C)C=C3)cc1 [SKLBC-50] ... > 20 µM

Hi team, please reply with IC50 for each item in this list.
1. CCN(CC)c1ccc(/C=C/C(=O)c2ccc(OS(C)(=O)=O)c3c2OC(C)(C)C=C3)cc1 [SKLBC-47]
2. CCN(CC)c1ccc(/C=C/C(=O)c2ccc(OC(=O)Cc3cccc(C(F)(F)F)c3)c3c2OC(C)(C)C=C3)cc1 [SKLBC-55]
3. CCCCC(=O)Oc1ccc(C(=O)/C=C/c2ccc(N(CC)CC)cc2)c2c1C=CC(C)(C)O2 [SKLBC-51]

Reply |
["> 20 µM", "> 10 µM", "20 µM"]

====

Exercise: for every item that follows, state its recorded pIC50.
Test system: HCT116
Assay: Cell proliferative assay (MTT), HCT116
Type: cell-based
Details: Homo sapiens, HCT-116, 72 h incubation, read-out: IC50s HCT116
pIC50: −log10 of the molar value.

Solved cases (3 shown):
COc1ccc(C(=O)/C=C/c2cc(Cl)ccc2O)c2c1C=CC(C)(C)O2 ... 5.28
COc1ccc(/C=C/C(=O)c2ccc(OC)c3c2OC(C)(C)C=C3)cn1 ... < 5.00
COc1ccc(/C=C/C(=O)c2ccc(OC)c3c2OC(C)(C)C=C3)c(F)c1 ... < 5.00

Here is another compound to look at.
Ask | Query pIC50 for COc1ccc(C(=O)/C=C/c2ccc(Cl)cc2)c2c1C=CC(C)(C)O2
Reply | < 5.00

====

Exercise: for every item that follows, state its recorded pIC50.
Test system: LO2
Experiment: Cell proliferative assay (MTT), LO2
Assay type: cell-based
Conditions: Homo sapiens, L02, 72 h incubation, read-out: IC50s LO2
pIC50: −log10 of the molar value.

CCN(CC)c1ccc(/C=C/C(=O)c2ccc(OC(=O)C3CC3)c3c2OC(C)(C)C=C3)cc1 [SKLBC-54] ... < 5.00

Provide pIC50 values for the following items, in order.
1. COc1ccc(/C=C/C(=O)c2ccc(OC)c3c2OC(C)(C)C=C3)cc1NS(C)(=O)=O [SKLBC-99]
2. CCN(CC)c1cc(/C=C/C(=O)c2ccc(OC)c3c2OC(C)(C)C=C3)ccc1OC [SKLBC-86]
3. COc1ccc(/C=C/C(=O)c2ccc(OC)c3c2OC(C)(C)C=C3)cc1NCc1ccccc1 [SKLBC-90]

Reply |
5.01
< 4.70
< 5.00

Please look at the items below and tell me pIC50 for each one, in order.
1. C=CC(=O)Oc1ccc(C(=O)/C=C/c2ccc(N(CC)CC)cc2)c2c1C=CC(C)(C)O2 [SKLBC-49]
2. CCC(=O)Oc1ccc(C(=O)/C=C/c2ccc(N(CC)CC)cc2)c2c1C=CC(C)(C)O2 [SKLBC-45]
3. COc1ccc(/C=C/C(=O)c2ccc(OC)c3c2OC(C)(C)C=C3)cc1OCCN1CCOCC1 [SKLBC-57]

Reply |
[5.07, 4.70, "< 4.70"]

For every listed record, write down its pIC50.
1. C#CCOc1cc(/C=C/C(=O)c2ccc(OC)c3c2OC(C)(C)C=C3)ccc1OC [SKLBC-73]
2. COc1ccc(/C=C/C(=O)c2ccc(OC)c3c2OC(C)(C)C=C3)cc1OC(=O)Cc1ccc(Cl)c(Cl)c1 [SKLBC-67]
3. COc1ccc(/C=C/C(=O)c2ccc(OC)c3c2OC(C)(C)C=C3)cc1NS(=O)(=O)c1ccc(C)cc1 [SKLBC-101]
4. C=CC(=O)Oc1cc(/C=C/C(=O)c2ccc(OC)c3c2OC(C)(C)C=C3)ccc1OC [SKLBC-75]
5. COc1ccc(/C=C/C(=O)c2ccc(OC)c3c2OC(C)(C)C=C3)cc1OCC=C(C)C [SKLBC-71]
6. COc1ccc(/C=C/C(=O)c2ccc(OC)c3c2OC(C)(C)C=C3)cc1NC(=O)C(C)C [SKLBC-96]
7. COc1ccc(/C=C/C(=O)c2ccc(OC)c3c2OC(C)(C)C=C3)cc1OC(=O)CCCc1ccc(N(CCCl)CCCl)cc1 [SKLBC-65]
8. CCN(CC)c1ccc(/C=C/C(=O)c2ccc(OC(=O)C3C4C[C@H]5C[C@@H](C4)C[C@@H]3C5)c3c2OC(C)(C)C=C3)cc1 (stereo partly shown) [SKLBC-56]

Reply |
["< 4.70", 5.00, "< 5.00", "< 5.00", "< 5.00", "< 4.70", "< 5.00", "< 5.00"]

Ask | Assign pIC50 to the following record: CCCCC(=O)Oc1cc(/C=C/C(=O)c2ccc(OC)c3c2OC(C)(C)C=C3)ccc1OC [SKLBC-79]
Reply | < 5.00
